- system: α-D-mannosidase from Jack beans (Canavalia ensiformis, UniProt C0HJB3)
- Construct: commercial native enzyme preparation
- Sequence (C0HJB3 1-562): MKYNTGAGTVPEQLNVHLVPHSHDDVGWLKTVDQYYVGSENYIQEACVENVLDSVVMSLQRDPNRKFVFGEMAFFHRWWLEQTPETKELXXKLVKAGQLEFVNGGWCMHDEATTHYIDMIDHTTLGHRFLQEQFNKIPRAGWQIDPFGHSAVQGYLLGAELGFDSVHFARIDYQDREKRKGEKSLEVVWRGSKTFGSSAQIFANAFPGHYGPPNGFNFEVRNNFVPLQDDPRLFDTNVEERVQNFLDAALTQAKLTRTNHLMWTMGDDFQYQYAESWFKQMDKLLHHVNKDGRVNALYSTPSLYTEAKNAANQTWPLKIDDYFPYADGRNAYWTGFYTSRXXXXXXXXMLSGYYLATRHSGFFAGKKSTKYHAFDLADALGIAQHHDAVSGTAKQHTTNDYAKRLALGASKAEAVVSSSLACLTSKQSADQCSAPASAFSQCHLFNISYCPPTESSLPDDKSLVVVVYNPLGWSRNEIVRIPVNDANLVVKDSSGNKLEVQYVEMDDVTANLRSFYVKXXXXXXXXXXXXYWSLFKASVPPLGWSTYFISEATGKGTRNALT
- Sequence (C0HJB3 563-981): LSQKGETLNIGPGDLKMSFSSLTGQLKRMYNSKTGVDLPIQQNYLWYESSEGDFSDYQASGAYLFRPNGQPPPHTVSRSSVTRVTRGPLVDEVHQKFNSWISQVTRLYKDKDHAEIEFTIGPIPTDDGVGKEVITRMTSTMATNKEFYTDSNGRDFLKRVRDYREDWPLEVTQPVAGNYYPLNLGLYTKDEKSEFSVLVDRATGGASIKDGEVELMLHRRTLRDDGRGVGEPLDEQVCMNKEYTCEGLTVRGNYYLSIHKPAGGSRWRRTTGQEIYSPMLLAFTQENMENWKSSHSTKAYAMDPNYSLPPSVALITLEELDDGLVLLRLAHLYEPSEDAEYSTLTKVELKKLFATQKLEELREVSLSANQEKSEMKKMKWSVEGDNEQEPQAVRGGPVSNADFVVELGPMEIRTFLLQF
- assay_overview: glycosidase inhibition assay
- Format: biochemical
- assay_conditions: read-out: % inhibition at 1 mM
measured_metric: inhibition at 1000 µM (%)

compound="N[C@H]1C[C@H](O)[C@@H](O)[C@H](O)[C@@H](O)C[C@@H]1O [compound 15, aminocyclitol 15]" system="α-D-mannosidase from Jack beans (Canavalia ensiformis, UniProt C0HJB3)" units_of_measure=% numeric_value=16
compound="OCC(CO)N[C@@H]1C[C@@H](O)[C@@H](O)[C@H](O)[C@H](O)C[C@H]1O [compound 20, aminocyclitol 20]" system="α-D-mannosidase from Jack beans (Canavalia ensiformis, UniProt C0HJB3)" units_of_measure=% numeric_value=8
compound="N[C@@H]1C[C@@H](O)[C@@H](O)[C@H](O)[C@H](O)C[C@H]1O [compound 16, aminocyclitol 16]" system="α-D-mannosidase from Jack beans (Canavalia ensiformis, UniProt C0HJB3)" units_of_measure=% numeric_value=8
compound="OCC(CO)N[C@H]1C[C@H](O)[C@@H](O)[C@H](O)[C@@H](O)C[C@@H]1O [compound 19, C8-voglibose mimetic 19]" system="α-D-mannosidase from Jack beans (Canavalia ensiformis, UniProt C0HJB3)" units_of_measure=% numeric_value=10

All values here come from paper PMC1399460.
